# protocol notes: Decomposition temperature of 5 % of the compound
# Type: physicochemical
Label yes (1) when T < 200 °C; otherwise no (0).

Past entries and their recorded results:
Input line: In plain terms, does CCCCCCCCCCCC[N+](C)(C)CCOc1ccccc1.O=C([O-])COc1ccc(Cl)cc1Cl come in under 200 °C for T?
Output line: no (0)

Input line: In plain terms, does CCCCCCCCCCCCCCCC[N+](C)(C)C.O=C([O-])COc1ccc(Cl)cc1Cl come in under 200 °C for T?
Output line: no (0)

Input line: In plain terms, does CCCCCCCCCCCCCCCC[N+](C)(C)CCO.O=C([O-])COc1ccc(Cl)cc1Cl come in under 200 °C for T?
Output line: no (0)

Input line: In plain terms, does C=CC[N+](C)(C)CC=C.O=C([O-])COc1ccc(Cl)cc1Cl come in under 200 °C for T?
Output line: yes (1)

Input line: In plain terms, does C[N+](C)(CCO)COC1CCCCCCCCCCC1.O=C([O-])COc1ccc(Cl)cc1Cl come in under 200 °C for T?
Output line: no (0)

More entries:
Input line: In plain terms, does CCCCCCCCCC[N+](C)(C)CCCCCCCCCC.O=C([O-])COc1ccc(Cl)cc1Cl come in under 200 °C for T?
Output line: no (0)

---

# protocol notes: Decomposition temperature of the compound
# Assay type: physicochemical
measured metric: T

Recorded results for 5 compounds are shown here.
Input line: Given CCCCCCCCCC[N+](C)(C)CCCCCCCCCC.O=C([O-])COc1ccc(Cl)cc1Cl , state its recorded T.
Output line: 260 °C

Input line: Given C[N+](C)(CCO)COC1CCCCCCCCCCC1.O=C([O-])COc1ccc(Cl)cc1Cl , state its recorded T.
Output line: 280 °C

Input line: Given CCCCCCCCCCCCCCCC[N+](C)(C)CCO.O=C([O-])COc1ccc(Cl)cc1Cl , state its recorded T.
Output line: 285 °C

Input line: Given CCCCCCCCCCSC[N+](C)(C)CCO.O=C([O-])COc1ccc(Cl)cc1Cl , state its recorded T.
Output line: 219 °C

Input line: Given C=CC[N+](C)(C)CC=C.O=C([O-])COc1ccc(Cl)cc1Cl , state its recorded T.
Output line: 196 °C

More entries:
Input line: Given CCCCCCCCCCCCCCCC[N+](C)(C)C.O=C([O-])COc1ccc(Cl)cc1Cl , state its recorded T.
Output line: 253 °C

Input line: Given CCCCCCCCCCCC[N+](C)(C)CCOc1ccccc1.O=C([O-])COc1ccc(Cl)cc1Cl , state its recorded T.
Output line: 273 °C

---

# protocol notes: Glass transition temperature of the compound
# Format: physicochemical
measured metric: T (°C)
Kindly answer with a numeric value in °C, unit omitted.

Recorded results for 4 molecules are shown here.
Input line: Given CCCCCCCCCC[N+](C)(C)CCCCCCCCCC.O=C([O-])COc1ccc(Cl)cc1Cl , state its recorded T.
Output line: -50

Input line: Given CCCCCCCCCCCCCCCC[N+](C)(C)CCO.O=C([O-])COc1ccc(Cl)cc1Cl , state its recorded T.
Output line: -54

Input line: Given CCCCCCCCCCCC[N+](C)(C)CCOc1ccccc1.O=C([O-])COc1ccc(Cl)cc1Cl , state its recorded T.
Output line: -42

Input line: Given CCCCCCCCCCSC[N+](C)(C)CCO.O=C([O-])COc1ccc(Cl)cc1Cl , state its recorded T.
Output line: -35

Let's switch to this molecule now.
Input line: Given C=CC[N+](C)(C)CC=C.O=C([O-])COc1ccc(Cl)cc1Cl , state its recorded T.
Output line: -42
